Molecular target: Kir3.1/Kir3.2 (Homo sapiens, UniProt P48051+P48549)
Sequence (P48549 whole entry): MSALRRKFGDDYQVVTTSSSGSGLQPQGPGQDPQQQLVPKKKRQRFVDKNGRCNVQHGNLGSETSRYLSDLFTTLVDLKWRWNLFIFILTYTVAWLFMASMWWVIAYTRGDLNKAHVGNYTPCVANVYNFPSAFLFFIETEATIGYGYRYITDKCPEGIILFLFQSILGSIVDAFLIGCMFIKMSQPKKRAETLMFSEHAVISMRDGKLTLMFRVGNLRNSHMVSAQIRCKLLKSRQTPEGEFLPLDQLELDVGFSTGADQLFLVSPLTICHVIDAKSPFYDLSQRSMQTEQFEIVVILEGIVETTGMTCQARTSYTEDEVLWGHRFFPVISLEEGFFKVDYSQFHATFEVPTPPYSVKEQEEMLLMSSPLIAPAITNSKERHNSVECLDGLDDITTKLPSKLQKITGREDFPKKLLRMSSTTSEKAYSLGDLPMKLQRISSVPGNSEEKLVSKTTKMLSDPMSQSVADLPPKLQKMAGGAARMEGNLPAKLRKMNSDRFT
Sequence (P48051 whole entry): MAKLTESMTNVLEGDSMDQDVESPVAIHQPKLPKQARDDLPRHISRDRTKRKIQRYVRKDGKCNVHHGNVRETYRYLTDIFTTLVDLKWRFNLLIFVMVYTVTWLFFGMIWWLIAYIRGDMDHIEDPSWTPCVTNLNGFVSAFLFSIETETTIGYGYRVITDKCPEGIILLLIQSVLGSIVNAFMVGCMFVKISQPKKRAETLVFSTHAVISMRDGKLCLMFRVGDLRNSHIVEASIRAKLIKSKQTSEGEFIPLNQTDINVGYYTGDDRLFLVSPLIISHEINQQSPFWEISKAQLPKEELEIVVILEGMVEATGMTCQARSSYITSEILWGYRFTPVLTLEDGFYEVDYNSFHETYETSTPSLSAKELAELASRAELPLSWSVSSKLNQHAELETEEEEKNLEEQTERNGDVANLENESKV
Test: Activation of human GIRK1/2 expressed in HEK293 cells co-expressing rat mGlu8 by thallium flux assay
outcome-measure: EC50 (nM)

> print(dat)
                                    compound  op  measured.value
 1  Cc1cc(NC(=O)Cn2nnc(-c3ccc(C(F)(F)F)cc3)n2)n(C2CCCCC2)n1   =             241
 2  Cc1cc(NC(=O)Cn2nnc(-c3ccccc3)n2)n(C2CCC(C)(C)CC2)n1   >             221
 3  Cc1cc(NC(=O)Cn2nnc(-c3ccccc3)n2)n(C2CCOCC2)n1   =             435
 4  Cc1cc(NC(=O)Cc2ccc(-c3ccccc3)cc2)n(C2CCCCC2)n1   =            1660
 5  Cc1cc(NC(=O)Cn2nnc(-c3ccccc3)n2)n(CC(F)(F)F)n1   >            6000
 6  Cc1cc(NC(=O)Cn2nnc(-c3ccnc(F)c3)n2)n(C2CCCCC2)n1   =             441
 7  Cc1cc(NC(=O)Cn2nnc(-c3ccccc3)n2)n(C2CC2)n1   >            5000
 8  O=C(Cn1nnc(-c2ccccc2)n1)Nc1cc(C2CC2)nn1C1CCCCC1   =             271
 9  O=C(Cn1nnc(-c2ccccc2)n1)NC1CC2CCC1C2 (stereo not drawn)   =            1980
10  Cc1cc(NC(=O)Cn2nnc(-c3cccc(C(F)(F)F)c3)n2)n(C2CCCCC2)n1   =             183
11  Cc1cc(NC(=O)Cn2nnc(-c3ccccc3F)n2)n(C2CCCCC2)n1   =             187
12  Cc1cc(NC(=O)Cn2nnc(-c3ccccc3)n2)n(Cc2ccccc2)n1   =             495
13  Cc1cc(NC(=O)Cn2nnc(-c3ccccc3)n2)n(C2CCC(F)(F)CC2)n1   =              84

* * *

Molecular target: Kir3.1/Kir3.4 (Homo sapiens) (UniProt P48549+P48544)
Experiment: Activation of human GIRK1/4 expressed in HEK293 cells co-expressing rat mGlu8 by thallium flux assay relative to control
Format: cell-based
Active and inactive are the calls of the source. The rule behind the calls is not given here.
outcome-measure: Emax

> print(dat)
                                    compound                         system.under.test  measured.value
 1  Cc1cc(NC(=O)Cn2nnc(-c3cccc(F)n3)n2)n(C2CCCCC2)n1  Kir3.1/Kir3.4 (Homo sapiens) (UniProt P48549+P48544)           > 38%
 2  Cc1cc(NC(=O)Cn2nnc(-c3cccc(C#N)c3)n2)n(C2CCCCC2)n1  Kir3.1/Kir3.4 (Homo sapiens) (UniProt P48549+P48544)             55%
 3  Cc1cc(NC(=O)Cn2nnc(-c3ccnc(F)c3)n2)n(C2CCCCC2)n1  Kir3.1/Kir3.4 (Homo sapiens) (UniProt P48549+P48544)             68%
 4  Cc1nc(-c2ccccc2)c(NC(=O)Cn2nnc(-c3ccccc3)n2)s1  Kir3.1/Kir3.4 (Homo sapiens) (UniProt P48549+P48544)        inactive
 5  CC1CC1c1cc(NC(=O)Cn2nnc(-c3ccccc3)n2)n(C2CCCCC2)n1 (stereo not given)  Kir3.1/Kir3.4 (Homo sapiens) (UniProt P48549+P48544)           > 19%
 6  CCC(C)n1nc(C)cc1NC(=O)Cn1nnc(-c2ccccc2)n1 (stereo not given)  Kir3.1/Kir3.4 (Homo sapiens) (UniProt P48549+P48544)           > 20%
 7         O=C(Cn1nnc(-c2ccccc2)n1)Nc1ccccn1  Kir3.1/Kir3.4 (Homo sapiens) (UniProt P48549+P48544)        inactive
 8  Cc1cc(NC(=O)Cn2nnc(-c3ccccc3)n2)n(C2CCS(=O)(=O)CC2)n1  Kir3.1/Kir3.4 (Homo sapiens) (UniProt P48549+P48544)        inactive
 9  Cc1cc(NC(=O)Cn2nnc(-c3cccc(Cl)c3)n2)n(C2CCCCC2)n1  Kir3.1/Kir3.4 (Homo sapiens) (UniProt P48549+P48544)             66%
10  Cc1cc(NC(=O)Cn2nnc(-c3ccccc3)n2)n(C2CC2)n1  Kir3.1/Kir3.4 (Homo sapiens) (UniProt P48549+P48544)           > 39%
11  Cc1cc(NC(=O)Cn2nnc(-c3ccccc3)n2)n(C2CCCCC2)n1  Kir3.1/Kir3.4 (Homo sapiens) (UniProt P48549+P48544)             63%
12  Cc1cc(NC(=O)Cn2nnc(-c3ccc(F)c(F)c3)n2)n(C2CCCCC2)n1  Kir3.1/Kir3.4 (Homo sapiens) (UniProt P48549+P48544)             79%
13  Cc1cc(NC(=O)Cn2nnc(-c3ccccn3)n2)n(C2CCCCC2)n1  Kir3.1/Kir3.4 (Homo sapiens) (UniProt P48549+P48544)           > 41%
14  Cc1cc(NC(=O)Cn2nnc(C3CC3)n2)n(C2CCCCC2)n1  Kir3.1/Kir3.4 (Homo sapiens) (UniProt P48549+P48544)           > 25%
15  Cc1cc(NC(=O)Cc2ncc(-c3ccccc3)o2)n(C2CCCCC2)n1  Kir3.1/Kir3.4 (Homo sapiens) (UniProt P48549+P48544)             27%

* * *

Each record here notes measured EC50.
Target: Kir3.1/Kir3.4 (Homo sapiens, UniProt P48544+P48549)
Sequence (P48549 whole entry): as the sequence (P48549 whole entry) above
Sequence (P48544 whole entry): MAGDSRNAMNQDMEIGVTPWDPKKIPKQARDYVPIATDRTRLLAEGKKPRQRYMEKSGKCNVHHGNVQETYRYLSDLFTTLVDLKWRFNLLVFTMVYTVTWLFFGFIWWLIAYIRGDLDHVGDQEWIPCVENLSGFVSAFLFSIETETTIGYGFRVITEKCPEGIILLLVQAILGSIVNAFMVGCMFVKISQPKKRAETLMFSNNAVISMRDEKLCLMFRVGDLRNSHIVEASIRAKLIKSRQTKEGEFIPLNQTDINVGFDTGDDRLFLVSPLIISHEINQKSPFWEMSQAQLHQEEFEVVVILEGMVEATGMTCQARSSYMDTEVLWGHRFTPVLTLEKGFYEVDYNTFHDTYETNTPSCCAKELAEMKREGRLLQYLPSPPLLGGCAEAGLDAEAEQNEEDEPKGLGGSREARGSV
Assay: Activation of human GIRK1/4 expressed in HEK293 cells co-expressing rat mGlu8 by thallium flux assay
outcome-measure: EC50

> print(dat)
                                   molecule                         system.under.test  outcome.measure  measured.value
1  Cc1cc(NC(=O)Cn2nnc(C3CC3)n2)n(C2CCCCC2)n1  Kir3.1/Kir3.4 (Homo sapiens, UniProt P48544+P48549)             EC50         > 10 µM
2  Cc1cc(NC(=O)Cn2nnc(-c3cccc(F)n3)n2)n(C2CCCCC2)n1  Kir3.1/Kir3.4 (Homo sapiens, UniProt P48544+P48549)             EC50         > 10 µM
3  Cc1cc(NC(=O)Cn2nnc(-c3ccccc3)n2)n(C2CC2)n1  Kir3.1/Kir3.4 (Homo sapiens, UniProt P48544+P48549)             EC50         > 10 µM
4  CCC(C)n1nc(C)cc1NC(=O)Cn1nnc(-c2ccccc2)n1 (stereo not given)  Kir3.1/Kir3.4 (Homo sapiens, UniProt P48544+P48549)             EC50         > 10 µM
5  Cc1cc(NC(=O)Cn2nnc(-c3ccccc3)n2)n(C(C)C)n1  Kir3.1/Kir3.4 (Homo sapiens, UniProt P48544+P48549)             EC50          > 4 µM
